test system: M14; assay: NCI tumour cell line growth inhibition, 48 h
The source made the active and inactive calls. Rule as the data show it: active = GI50 up to about 1.1 µM and inactive = higher.

- molecule: "COCOc1ccc(C(=O)C(C)c2ccc(OCOC)cc2OCOC)c(O)c1 (configuration not stated)"
  GI50: "> 100 µM (inactive)"
- molecule: "N=C(N)NCCCC(Nc1c2ccccc2nc2ccccc12)C(=O)O (configuration not stated)"
  GI50: "> 100 µM (inactive)"
- molecule: "COc1cc(/C=C2\\C(=O)N(Cc3ccccc3)C(c3ccccc3)S2(=O)=O)cc(OC)c1OC (configuration not stated)"
  GI50: "52.7 µM (inactive)"
- molecule: "COc1ccc(-c2c(C#N)c(N)nc(S)c2C#N)cc1"
  GI50: "30 µM (inactive)"
- molecule: "Cc1ccc(S(=O)(=O)N/N=C(/CC(=O)c2c(C)[n+]([O-])c3ccccc3[n+]2[O-])C(=O)Nc2ccccc2C)cc1"
  GI50: "> 100 µM (inactive)"
- molecule: "N#CC(=N)c1ncn(CCO)c1NC(=O)C(F)(F)F"
  GI50: "> 100 µM (inactive)"
- molecule: "Cc1[nH]c2ccccc2c1/C=N/c1ccc(Oc2ccccc2)cc1"
  GI50: "16.6 µM (inactive)"
- molecule: "O=c1[nH]c2nc3ccccc3c(=O)n2/c1=C/c1cccs1"
  GI50: "> 100 µM (inactive)"
- molecule: "C1=C(c2ccccc2)Nc2nnnn2C1c1ccccc1 (configuration not stated)"
  GI50: "23.9 µM (inactive)"
- molecule: "Cn1cnc([N+](=O)[O-])c1Sc1nc2cccnc2[nH]1"
  GI50: "> 100 µM (inactive)"
- molecule: "CCCCCCSc1nc(COC(=O)NC)c(COC(=O)NC)n1C"
  GI50: "> 100 µM (inactive)"
- molecule: "COC(=O)c1ccc(NCC2=C(Br)C(=O)C=CC2=O)cc1Cl"
  GI50: "18.2 µM (inactive)"
- molecule: "C[Si](C)(C)c1ccc(-c2c3ccc(-c4cc(Br)cc(Br)c4)nc3nc3nc(-c4cc(Br)cc(Br)c4)ccc23)cc1"
  GI50: "> 100 µM (inactive)"
- molecule: "CCOC(=O)c1nc2ccccc2nc1Oc1cc(OC)c(OC)c(OC)c1"
  GI50: "> 100 µM (inactive)"
- molecule: "Oc1ccc(NCc2cc(O)ccc2O)cc1"
  GI50: "17.8 µM (inactive)"
- molecule: "Cc1cnc2cc(Cl)ccc2c1SCC(=O)O"
  GI50: "> 100 µM (inactive)"
- molecule: "CCCCOP1(=O)C=CC(Cl)=C(C)C1 (configuration not stated)"
  GI50: "33.3 µM (inactive)"
- molecule: "OC12CC3c4ccccc4NC3C3Oc4cccc5c4C31CCN(CC1CC1)C2C5 (configuration not stated)"
  GI50: "17.7 µM (inactive)"
- molecule: "Cc1cc(NS(=O)(=O)c2ccc(Nc3c4ccccc4nc4c(C(=O)Nc5ccc(S(N)(=O)=O)cc5)cccc34)cc2)no1"
  GI50: "> 100 µM (inactive)"
- molecule: "O=c1cc(-c2ccccc2)[nH]c2cc(F)c(F)cc12"
  GI50: "0.392 µM (active)"
- molecule: "COC(=O)C(=C/c1ccc(OC)cc1)/C(C(=O)O)=C(/C)c1ccccc1"
  GI50: "> 100 µM (inactive)"
- molecule: "O=C(Cc1ccccc1)NNc1nc(NNC(=O)c2ccncc2)nc(Nc2ccccc2)n1"
  GI50: "> 10 µM (inactive)"
- molecule: "O=C1c2cccc([N+](=O)[O-])c2C(=O)N1c1ncn[nH]1"
  GI50: "> 100 µM (inactive)"
- molecule: "COc1ccc(C=O)c(N(C)C(=O)C(C)(C)C)c1"
  GI50: "> 100 µM (inactive)"
- molecule: "COc1ccc(/C=C\\c2cc(OC)c(OC(C)=O)c(OC)c2)cc1"
  GI50: "18.2 µM (inactive)"
- molecule: "CC(=O)NCCCCCCNC(C)=O [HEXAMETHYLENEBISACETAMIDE]"
  GI50: "6040 µM (inactive)"
- molecule: "COC(=O)C1CCC(=O)N1/C(C)=N/NC(=O)Nc1ccc(Cl)c(Cl)c1 (configuration not stated)"
  GI50: "> 100 µM (inactive)"
- molecule: "Cc1ccc(/N=N/C(=N/NC(=O)c2cc(Cl)ccc2O)c2ccc(N(CCC#N)CCC#N)cc2C)cc1"
  GI50: "30.6 µM (inactive)"
- molecule: "CCO/C=N/C1=C(C#N)SC2=N/C(=C\\c3ccccc3)C(=O)N21"
  GI50: "> 100 µM (inactive)"
- molecule: "COc1ccc2nc3cc([N+](=O)[O-])ccc3c(NNc3ccc([N+](=O)[O-])cc3)c2c1"
  GI50: "43.4 µM (inactive)"
- molecule: "CC(C)(C)c1cc2c(OP(c3ccccc3)c3ccccc3)c(c1)Cc1cc(C(C)(C)C)cc(c1OP(c1ccccc1)c1ccccc1)Cc1cc(C(C)(C)C)cc(c1OP(c1ccccc1)c1ccccc1)Cc1cc(C(C)(C)C)cc(c1OP(c1ccccc1)c1ccccc1)C2"
  GI50: "> 5 µM (inactive)"
- molecule: "CCCCCCCCCCCCCCC(O)C[N+](C)(CCO)CCO (configuration not stated)"
  GI50: "1.59 µM (inactive)"

###

Documented GI50 across a set of molecules
tested on: HCT-116; assay: NCI tumour cell line growth inhibition, 48 h
Calls of active or inactive are those of the source. No stated cut-off is given here; in the data, active = GI50 up to about 1.1 µM and inactive = higher. Where a SMILES comes first, the peptide text is derived from it. The star is where a group is joined. Boc = CC(C)(C)OC(=O)*
property: GI50

- molecule: "O=C(O)CSCc1cc2c(O)c(c1)Cc1cc(CSCC(=O)O)cc(c1O)Cc1cc(CSCC(=O)O)cc(c1O)Cc1cc(CSCC(=O)O)cc(c1O)C2"
  result: "> 100 µM (inactive)"
- molecule: "CN(CCCCCl)P(=O)(OCC1=CC(=O)c2ccccc2C1=O)OC[C@H]1O[C@@H](n2cc(F)c(=O)[nH]c2=O)C[C@@H]1O (stereo partly specified)"
  result: "0.0693 µM (active)"
- molecule: "COC(=O)CNC(=O)C(Cc1ccccc1)NC(=O)C(CCSC)NC(=O)C(Cc1ccc(O)cc1)NC(=O)OC(C)(C)C (stereo unspecified) (Boc-YMFG-OMe; configuration not given here)"
  result: "54.3 µM (inactive)"
- molecule: "Oc1ccc(NCc2cc(O)ccc2O)cc1"
  result: "15.3 µM (inactive)"
- molecule: "CCCc1ccc(OCC(=O)N/N=C/c2c(-c3ccccc3)[nH]c3ccccc23)cc1"
  result: "8.97 µM (inactive)"
- molecule: "COC(=O)c1ccc(NCC2=C(Br)C(=O)C=CC2=O)cc1Cl"
  result: "18 µM (inactive)"
- molecule: "CC1=NN(C(=O)CC(=O)Nc2ccccc2)C(=O)C1/N=N/c1ccc(S(N)(=O)=O)cc1 (stereo unspecified)"
  result: "48 µM (inactive)"
- molecule: "COC1(C2c3ccccc3CCN2C(=O)OC(C)(C)C)C(=O)C(c2ccccc2)=C1N(C)C (stereo unspecified)"
  result: "25.7 µM (inactive)"
- molecule: "CCC(C)C(C(=O)N/N=C1/SCC(=O)N1c1ccccc1)C(=O)N/N=C1/SCC(=O)N1c1ccccc1 (stereo unspecified)"
  result: "23 µM (inactive)"
- molecule: "COc1cc(Nc2nc3cc(C)ccc3nc2-c2ccccc2)cc(OC)c1OC"
  result: "19.9 µM (inactive)"
- molecule: "C/C(CC(=O)Nc1cccc(C)c1C)=N\\NC(N)=S"
  result: "88.7 µM (inactive)"
- molecule: "Clc1ccc(-c2nc3cc(C45CC6CC(CC(C6)C4)C5)ccc3[nH]2)cc1"
  result: "22.5 µM (inactive)"
- molecule: "Cc1cc(S(=O)(=O)N/C(=C(\\C#N)C(=O)c2ccc(Cl)cc2)[n+]2ccc(N(C)C)cc2)c([S-])cc1Cl"
  result: "19.8 µM (inactive)"
- molecule: "CCOC(=O)c1c(N2CCOCC2)[nH]c(=O)c(C(c2c(O)c(C(=O)OCC)c(N3CCOCC3)[nH]c2=O)C(C)C)c1O"
  result: "> 100 µM (inactive)"
- molecule: "O=C1/C(=C\\c2cccc(Oc3ccccc3)c2)S(=O)(=O)C(c2ccccc2)N1Cc1ccccc1 (stereo unspecified)"
  result: "31 µM (inactive)"
- molecule: "Cc1nc2ccc(Br)cc2c(=O)n1-c1nnc(C(C)(C)C)s1"
  result: "> 10 µM (inactive)"
- molecule: "CC1(C)CC2CC(CC(C)(C)C2=O)C1=O"
  result: "> 100 µM (inactive)"
- molecule: "Cc1nnc2ccccc2c1O"
  result: "> 100 µM (inactive)"
- molecule: "Cc1ccc(N(C(=O)CC(=O)N2N=C(c3ccccc3)C(/N=N/c3ccc([N+](=O)[O-])cc3)C2=O)C(=O)c2ccc(Cl)cc2)cc1 (stereo unspecified)"
  result: "8.59 µM (inactive)"
- molecule: "CC(=O)CC1CCC(=O)/C=C/C(=O)OC(CC(C)=O)CCC(=O)/C=C/C(=O)O1 (stereo unspecified)"
  result: "4.1 µM (inactive)"
- molecule: "COc1ccc2nc3cc(Cl)ccc3c(NCCC[N+](C)(C)CCCCCCCCCCCCCCCC[N+](C)(C)CCCNc3c4ccc(Cl)cc4nc4ccc(OC)cc34)c2c1"
  result: "1.75 µM (inactive)"
- molecule: "O=c1c2ccc(Cl)cc2oc2c(CNc3ccc(S(=O)(=O)Nc4ncccn4)cc3)cccc12"
  result: "> 100 µM (inactive)"
- molecule: "CCOP(=O)(/C=C\\n1cnc2c(=O)n(C(C)=O)c(N)nc21)OCC"
  result: "> 100 µM (inactive)"
- molecule: "CC(=O)N1CCn2c1nc1cc(Cl)ccc12"
  result: "44 µM (inactive)"
- molecule: "COC1C=CC23c4cc5c(cc4C(O)OC2CN(C)C3C1)OCO5 (stereo unspecified)"
  result: "1.07 µM (active)"
- molecule: "CC(=O)N1N=C(c2c(O)ccc3ccccc23)CC1C(=O)c1ccco1 (stereo unspecified)"
  result: "20.4 µM (inactive)"
